Assay: self-splicing fitness, log relative to wild type (ln ratio); higher = more splicing; Tetrahymena group I intron in knt gene, E. coli kanamycin selection, DiMSum; sequences stand for … in CUCUCU…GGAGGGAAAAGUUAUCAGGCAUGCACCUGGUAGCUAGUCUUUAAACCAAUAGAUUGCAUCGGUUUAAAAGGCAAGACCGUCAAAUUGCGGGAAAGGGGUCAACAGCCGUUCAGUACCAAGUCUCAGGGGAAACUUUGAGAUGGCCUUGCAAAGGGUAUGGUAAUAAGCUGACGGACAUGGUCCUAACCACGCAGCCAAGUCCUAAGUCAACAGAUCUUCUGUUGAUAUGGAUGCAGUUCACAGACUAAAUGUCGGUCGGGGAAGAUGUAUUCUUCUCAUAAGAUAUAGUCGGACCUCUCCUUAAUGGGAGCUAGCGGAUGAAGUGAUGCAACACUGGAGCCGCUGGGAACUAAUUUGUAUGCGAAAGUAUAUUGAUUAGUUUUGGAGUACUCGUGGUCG;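 also: selection with 25 µg/mL kanamycin versus none on LB agar overnight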
Conditions: 37 °C
Response key: Condition met means self-splicing fitness (ln) >= -2; Condition not met means self-splicing fitness (ln) < -2.

Check out these entries, answers already filled in.
[
  {
    "Residue String": "ACCCAGCAAUAUUACGCCUC",
    "Assigned Class": "Condition met"
  },
  {
    "Residue String": "ACUUAGCAAUAUUACGCGGG",
    "Assigned Class": "Condition not met"
  },
  {
    "Residue String": "CGUGAGCAAUAUUACGCUUA",
    "Assigned Class": "Condition not met"
  },
  {
    "Residue String": "UAGCAGCAAUAUUACGACUC",
    "Assigned Class": "Condition met"
  },
  {
    "Residue String": "GUAGAGCAAUAUUACGACAG",
    "Assigned Class": "Condition met"
  }
]

In plain terms: is recorded self-splicing fitness (ln) at least -2 for GGUAAGCAAUAUUACGAUCA ?
Condition met

In plain terms: is recorded self-splicing fitness (ln) at least -2 for AGGGAGCAAUAUUACGUUAA ?
Condition not met

In plain terms: is recorded self-splicing fitness (ln) at least -2 for UUGAAGCAAUAUUACGGUGG ?
Condition met

----------
In this section we review reported self-splicing fitness (ln) values for a set of sequences.
Assay: self-splicing fitness, log relative to wild type (ln ratio); higher = more splicing; Tetrahymena group I intron in knt gene, E. coli kanamycin selection, DiMSum; sequences stand for … in CUCUCU…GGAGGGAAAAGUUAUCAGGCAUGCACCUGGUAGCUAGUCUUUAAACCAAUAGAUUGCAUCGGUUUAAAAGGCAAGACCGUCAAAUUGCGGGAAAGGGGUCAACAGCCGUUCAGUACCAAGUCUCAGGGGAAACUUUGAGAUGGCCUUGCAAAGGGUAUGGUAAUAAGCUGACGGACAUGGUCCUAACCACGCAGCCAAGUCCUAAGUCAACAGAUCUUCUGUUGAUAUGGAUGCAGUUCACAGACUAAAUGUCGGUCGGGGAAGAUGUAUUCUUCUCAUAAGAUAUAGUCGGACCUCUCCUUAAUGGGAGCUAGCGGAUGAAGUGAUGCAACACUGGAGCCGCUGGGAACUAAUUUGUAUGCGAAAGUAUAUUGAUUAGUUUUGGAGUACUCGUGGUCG
Settings: 37 °C

[
  {
    "Residue String": "ACGCAGCAAUAUUACGGCUU",
    "self-splicing fitness (ln)": -0.227
  },
  {
    "Residue String": "GUGUAGCAAUAUUACGAUUU",
    "self-splicing fitness (ln)": 0.0419
  },
  {
    "Residue String": "ACUAAGCAAUAUUACGGGGC",
    "self-splicing fitness (ln)": -2.79
  },
  {
    "Residue String": "GUGAAGCAAUAUUACGUUCC",
    "self-splicing fitness (ln)": -1.16
  },
  {
    "Residue String": "GUCGAGCAAUAUUACGACUG",
    "self-splicing fitness (ln)": -0.232
  }
]

self-splicing fitness (ln) in this record for UGCAAGCAAUAUUACGUACC : -1.02

self-splicing fitness (ln) in this record for UAUUAGCAAUAUUACGGAAU : -0.66

self-splicing fitness (ln) in this record for CAUCAGCAAUAUUACGUGGG : -1.71
